The measurements presented in this section are drawn from the supplement of paper PMC11061612.

- System: BFTC-909 (Kidney Carcinoma)
- method_notes: Bliss excess, mean over the matrix (fraction); higher = more synergy;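 further: after 72 h of two-drug dosing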
metric: Bliss excess
The answer should be written as a number, with no unit following it.

{"molecule": "CCc1c2c(nc3ccc(O)cc13)-c1cc3c(c(=O)n1C2)COC(=O)[C@]3(O)CC [SN-38] + O=C(c1cc(Cc2n[nH]c(=O)c3ccccc23)ccc1F)N1CCN(C(=O)C2CC2)CC1 [Olaparib] (first compound max 0.3 µM, 7x7, partner max 10 µM)", "metric": "Bliss excess", "number": 0.0897}
{"molecule": "COc1cccc(OCCCN)c1-c1cc(Nc2cnc(C#N)cn2)n[nH]1 [Prexasertib] + CCc1c2c(nc3ccc(O)cc13)-c1cc3c(c(=O)n1C2)COC(=O)[C@]3(O)CC [SN-38] (first compound max 1 µM, 7x7, partner max 0.3 µM)", "metric": "Bliss excess", "number": 0.0075}
{"molecule": "Cc1c2c(nn1C)CSCc1cc(n(C)n1)CSc1cc(c3ccccc3c1)OCCCc1c(C(=O)O)n(C)c3c-2c(Cl)ccc13 [AZD5991] + Cn1cnc2c(F)c(Nc3ccc(Br)cc3Cl)c(C(=O)NOCCO)cc21 [Selumetinib] (first compound max 1 µM, 7x7, partner max 3 µM)", "metric": "Bliss excess", "number": 0.0607}

Next:
Bench note: what Bliss excess did CC(=O)c1c(C)c2cnc(Nc3ccc(N4CCNCC4)cn3)nc2n(C2CCCC2)c1=O [Palbociclib] + Cn1cnc2c(F)c(Nc3ccc(Br)cc3Cl)c(C(=O)NOCCO)cc21 [Selumetinib] (first compound max 10 µM, 7x7, partner max 10 µM) show?
0.0424

====

- System: HuH-7 (Hepatocellular Carcinoma)
- method_notes: Bliss excess, mean over the matrix (fraction); higher = more synergy
Label met for high-side Bliss excess (at or above -0.02) and not met for low-side Bliss excess (below it).

# example entries with known answers
{"compound": "COc1cccc(OCCCN)c1-c1cc(Nc2cnc(C#N)cn2)n[nH]1 [Prexasertib] + CCc1c2c(nc3ccc(O)cc13)-c1cc3c(c(=O)n1C2)COC(=O)[C@]3(O)CC [SN-38] (first compound max 1 µM, 7x7, partner max 0.3 µM)", "experimental_target": "HuH-7 (Hepatocellular Carcinoma)", "category_label": "met"}
{"compound": "COc1cc2c(cc1OCCCCCOc1cc3c(cc1OC)C(=O)N1C=C(C)C[C@H]1C=N3)N=C[C@@H]1CC(C)=CN1C2=O [SG3199] + O=C(c1cc(Cc2n[nH]c(=O)c3ccccc23)ccc1F)N1CCN(C(=O)C2CC2)CC1 [Olaparib] (first compound max 0.001 µM, 7x7, partner max 10 µM)", "experimental_target": "HuH-7 (Hepatocellular Carcinoma)", "category_label": "not met"}
{"compound": "C[C@@H](c1ccc2nccn2c1)n1nnc2ncc(-c3cnn(C)c3)nc21 [Savolitinib] + CN(CC[C@H](CSC1=CC=CC=C1)NC2=C(C=C(C=C2)S(=O)(=O)NC(=O)C3=CC=C(C=C3)N4CCC(CC4)[C@H](C5=CC=CC=C5C6=CC=C(C=C6)Cl)O)S(=O)(=O)C(F)(F)F)CCO [AZD4320] (first compound max 1 µM, 7x7, partner max 1 µM)", "experimental_target": "HuH-7 (Hepatocellular Carcinoma)", "category_label": "met"}
{"compound": "Cc1cc2ncnn2cc1Nc1ncc2c(n1)n(C1CCOCC1)c(=O)n2C [AZD7648] + O=C(c1cc(Cc2n[nH]c(=O)c3ccccc23)ccc1F)N1CCN(C(=O)C2CC2)CC1 [Olaparib] (first compound max 10 µM, 7x7, partner max 10 µM)", "experimental_target": "HuH-7 (Hepatocellular Carcinoma)", "category_label": "not met"}
{"compound": "Cc1cc2ncnn2cc1Nc1ncc2c(n1)n(C1CCOCC1)c(=O)n2C [AZD7648] + CCN(CCO)CCCOc1ccc2c(Nc3cc(CC(=O)Nc4cccc(F)c4)[nH]n3)ncnc2c1 [AZD2811] (first compound max 10 µM, 7x7, partner max 1 µM)", "experimental_target": "HuH-7 (Hepatocellular Carcinoma)", "category_label": "met"}

Confirm if Bliss excess reported for the compound Cc1c2c(nn1C)CSCc1cc(n(C)n1)CSc1cc(c3ccccc3c1)OCCCc1c(C(=O)O)n(C)c3c-2c(Cl)ccc13 [AZD5991] + CCN(CCO)CCCOc1ccc2c(Nc3cc(CC(=O)Nc4cccc(F)c4)[nH]n3)ncnc2c1 [AZD2811] (first compound max 1 µM, 7x7, partner max 1 µM) is -0.02 or above.
met
